log10 of IC50 values for the molecules below.
- Test system: HT29: human colon cancer cell line
- experiment_notes: Proliferation IC50 assay, oxic/hypoxic, HT29
- Type: cell-based
- run_parameters: Homo sapiens, HT-29; Table 3; 4 h exposure under aerobic conditions
Units before log transform: nM; reported quantity: IC50; transform: log10.

// recorded log10 of IC50 for CN(C)CCOc1ccc2[nH]c(C(=O)N3CC(CCl)c4c3cc([N+](=O)[O-])c3cc(C(N)=O)ccc43)cc2c1 (stereo not shown) : 3.61

// recorded log10 of IC50 for CN(C)CCOc1ccc2[nH]c(C(=O)N3CC(CCl)c4c3cc([N+](=O)[O-])c3ccc(S(C)(=O)=O)cc43)cc2c1 (stereo not shown) : 2.99

// recorded log10 of IC50 for CN(C)CCOc1ccc2[nH]c(C(=O)N3CCc4c3cc([N+](=O)[O-])c3c(S(N)(=O)=O)c(CCl)ccc43)cc2c1 : 3.43

// recorded log10 of IC50 for COc1cc2cc(C(=O)N3CC(CCl)c4c3cc([N+](=O)[O-])c3c([N+](=O)[O-])cccc43)[nH]c2c(OC)c1OC (stereo not shown) : 4.26

// recorded log10 of IC50 for CN(C)CCOc1ccc2[nH]c(C(=O)N3CC(CCl)c4c3cc([N+](=O)[O-])c3cc([N+](=O)[O-])ccc43)cc2c1 (stereo not shown) : 2.95

// recorded log10 of IC50 for COc1cc2cc(C(=O)N3CC(CCl)c4c3cc([N+](=O)[O-])c3cc(C(C)=O)ccc43)[nH]c2c(OC)c1OC (stereo not shown) : 3.61

// recorded log10 of IC50 for CN(C)CCOc1ccc2[nH]c(C(=O)N3CC(CCl)c4c3cc([N+](=O)[O-])c3cc(C#N)ccc43)cc2c1 (stereo not shown) : 2.85

// recorded log10 of IC50 for COc1cc2cc(C(=O)N3CC(CCl)c4c3cc([N+](=O)[O-])c3cc(C(N)=O)ccc43)[nH]c2c(OC)c1OC (stereo not shown) : 3.90

// recorded log10 of IC50 for CN(C)CCOc1ccc2[nH]c(C(=O)N3CC(CCl)c4c3cc([N+](=O)[O-])c3c([N+](=O)[O-])cccc43)cc2c1 (stereo not shown) : 3.45

// recorded log10 of IC50 for CN(C)CCOc1ccc2[nH]c(C(=O)N3CC(CCl)c4c3cc([N+](=O)[O-])c3cc(S(=O)(=O)N(C)C)ccc43)cc2c1 (stereo not shown) : 3.04

// recorded log10 of IC50 for COc1cc2cc(C(=O)N3CC(CCl)c4c3cc([N+](=O)[O-])c3cc(S(C)(=O)=O)ccc43)[nH]c2c(OC)c1OC (stereo not shown) : 4.15

// recorded log10 of IC50 for COc1cc2cc(C(=O)N3CC(CCl)c4c3cc([N+](=O)[O-])c3ccc(C(=O)NCCN(C)C)cc43)[nH]c2c(OC)c1OC (stereo not shown) : 3.11

// recorded log10 of IC50 for CN(C)CCOc1ccc2[nH]c(C(=O)N3CC(CCl)c4c3cc([N+](=O)[O-])c3cc(S(=O)(=O)NCCO)ccc43)cc2c1 (stereo not shown) : 3.74

====

- System: HT29: human colon cancer cell line
- experiment_notes: Proliferation IC50 assay, oxic/hypoxic, HT29
- Assay type: cell-based
- run_parameters: Homo sapiens, HT-29; Table 4; 4 h exposure under aerobic conditions
recorded_endpoint: pIC50
pIC50 is defined as minus the log10 of a concentration measured in mol/L.

Recorded pIC50, per entry:
> print(dat)
                                   molecule  observed.value
1  CN(C)CCOc1ccc2[nH]c(C(=O)N3CC(CCl)c4c3cc(N)c3cc(C(N)=O)ccc43)cc2c1 (centres unmarked)            7.21
2  COc1cc2cc(C(=O)N3CC(CCl)c4c3cc(N)c3cc(S(N)(=O)=O)ccc43)[nH]c2c(OC)c1OC (centres unmarked)            7.07
3  CN(C)CCOc1ccc2[nH]c(C(=O)N3CC(CCl)c4c3cc(N)c3ccc(S(C)(=O)=O)cc43)cc2c1 (centres unmarked)            7.54

Simply: COc1cc2cc(C(=O)N3CC(CCl)c4c3cc(N)c3ccc(S(C)(=O)=O)cc43)[nH]c2c(OC)c1OC (centres unmarked) , HT29: human colon cancer cell line, pIC50 = 7.60

Simply: CN(C)CCOc1ccc2[nH]c(C(=O)N3CC(S(=O)(=O)NCCO)c4c3cc(N)c3c(CCl)cccc43)cc2c1 (centres unmarked) , HT29: human colon cancer cell line, pIC50 = 7.03

====

- experiment_notes: One-electron reduction potential E(1) by pulse radiolysis
- Format: physicochemical
- run_parameters: determined by pulse radiolysis
recorded_endpoint: E(1): one-electron reduction potential (mV)
# output: bare number, implied unit mV

Recorded E(1): one-electron reduction potential, per entry:
> print(dat)
                                   compound  unit.of.measure  observed.value
1  CN(C)CCOc1ccc2[nH]c(C(=O)N3CC(CCl)c4c3cc([N+](=O)[O-])c3ccc(C#N)cc43)cc2c1 (centres unmarked) [Compound 45]               mV            −419
2  CN(C)CCOc1ccc2[nH]c(C(=O)N3CC(CCl)c4c3cc([N+](=O)[O-])c3cc(S(C)(=O)=O)ccc43)cc2c1 (centres unmarked) [Compound 24]               mV            −362

// recorded E(1): one-electron reduction potential for COC(=O)c1ccc2c3c(cc([N+](=O)[O-])c2c1)N(C(=O)c1cc2cc(OCCN(C)C)ccc2[nH]1)CC3CCl (centres unmarked) [Compound 14] : −429

// recorded E(1): one-electron reduction potential for COc1cc2cc(C(=O)N3CC(CCl)c4c3cc([N+](=O)[O-])c3cc(C(=O)NCCN(C)C)ccc43)[nH]c2c(OC)c1OC (centres unmarked) [Compound 20] : −427

// recorded E(1): one-electron reduction potential for CN(C)CCOc1ccc2[nH]c(C(=O)N3CCc4c3cc([N+](=O)[O-])c3c(S(N)(=O)=O)c(CCl)ccc43)cc2c1 [Compound 7] : −497

====

- Test system: HT29: human colon cancer cell line
- experiment_notes: Proliferation IC50 assay, oxic/hypoxic, HT29
- Assay type: cell-based
- run_parameters: Table 3; IC50(aerobic)/IC10(hypoxic)
HCR (hypoxic cytotoxicity ratio) HT29 values for the compounds below.
Field format: numeric only.

Recorded HCR (hypoxic cytotoxicity ratio) HT29, per entry:
> print(dat)
                                   compound                      recorded.endpoint  observed.value
1  COc1cc2cc(C(=O)N3CC(CCl)c4c3cc([N+](=O)[O-])c3ccc(C(=O)NCCN(C)C)cc43)[nH]c2c(OC)c1OC (stereo not drawn) [Compound 44]  HCR (hypoxic cytotoxicity ratio) HT29             2.4
2  COc1ccc(/C=C/C(=O)N2CC(CCl)c3c2cc([N+](=O)[O-])c2cc(C(=O)NCCO)ccc32)cc1 (stereo not drawn) [Compound 18]  HCR (hypoxic cytotoxicity ratio) HT29             4.4
3  COc1cc2cc(C(=O)N3CC(CCl)c4c3cc([N+](=O)[O-])c3cc(S(N)(=O)=O)ccc43)[nH]c2c(OC)c1OC (stereo not drawn) [Compound 25]  HCR (hypoxic cytotoxicity ratio) HT29             3.6
4  CN(C)CCOc1ccc2[nH]c(C(=O)N3CC(CCl)c4c3cc([N+](=O)[O-])c3ccc(C#N)cc43)cc2c1 (stereo not drawn) [Compound 45]  HCR (hypoxic cytotoxicity ratio) HT29             1.4

// recorded HCR (hypoxic cytotoxicity ratio) HT29 for CN(C)CCOc1ccc2[nH]c(C(=O)N3CC(CCl)c4c3cc([N+](=O)[O-])c3ccc(S(C)(=O)=O)cc43)cc2c1 (stereo not drawn) [Compound 47] : 1.2

// recorded HCR (hypoxic cytotoxicity ratio) HT29 for COc1cc2cc(C(=O)N3CC(CCl)c4c3cc([N+](=O)[O-])c3cc(C(C)=O)ccc43)[nH]c2c(OC)c1OC (stereo not drawn) [Compound 11] : 5.2

====

Counter-ions that a name gives are not always drawn.
recorded_endpoint: melting point

> print(dat)
                                   compound        observed.value
1  CN(C)CCOc1ccc2[nH]c(C(=O)N3CC(CCl)c4c3cc(N)c3cc(C(N)=O)ccc43)cc2c1 (stereo not shown)  232 to 236 °C (dec.)
2  COC(=O)c1ccc2c3c(cc([N+](=O)[O-])c2c1)N(C(=O)c1cc2cc(OC)c(OC)c(OC)c2[nH]1)CC3CCl (stereo not shown)         256 to 257 °C
3  COc1cc2cc(C(=O)N3CC(CCl)c4c3cc([N+](=O)[O-])c3ccc(S(C)(=O)=O)cc43)[nH]c2c(OC)c1OC (stereo not shown)                265 °C
4  COc1cc2cc(C(=O)N3CC(CCl)c4c3cc([N+](=O)[O-])c3cc(S(C)(=O)=O)ccc43)[nH]c2c(OC)c1OC (stereo not shown)  296 to 297 °C (dec.)
5  CN(C)CCOc1ccc2[nH]c(C(=O)N3CC(CCl)c4c3cc(N)c3cc(C#N)ccc43)cc2c1 (stereo not shown)  250 to 255 °C (dec.)

// recorded melting point for COc1cc2cc(C(=O)N3CC(CCl)c4c3cc(N)c3cc(S(N)(=O)=O)ccc43)[nH]c2c(OC)c1OC (stereo not shown) : 240 to 245 °C (dec.)

// recorded melting point for CC(=O)c1ccc2c3c(cc(N)c2c1)N(C(=O)c1cc2cc(OCCN(C)C)ccc2[nH]1)CC3CCl (stereo not shown) : 220 to 224 °C (dec.)

// recorded melting point for CN(C)CCOc1ccc2[nH]c(C(=O)N3CCc4c3cc([N+](=O)[O-])c3c(S(N)(=O)=O)c(CCl)ccc43)cc2c1 : > 320 °C

// recorded melting point for COc1cc2cc(C(=O)N3CC(CCl)c4c3cc([N+](=O)[O-])c3ccc(C(=O)NCCN(C)C)cc43)[nH]c2c(OC)c1OC (stereo not shown) (as salt: HCl) : 228 to 229 °C (dec.)

// recorded melting point for COc1cc2cc(C(=O)N3CC(CCl)c4c3cc([N+](=O)[O-])c3cc(C(C)=O)ccc43)[nH]c2c(OC)c1OC (stereo not shown) : 257 to 260 °C

// recorded melting point for CN(C)CCOc1ccc2[nH]c(C(=O)N3CC(CCl)c4c3cc([N+](=O)[O-])c3cc(S(N)(=O)=O)ccc43)cc2c1 (stereo not shown) (as salt: HCl) : > 350 °C

// recorded melting point for CNS(=O)(=O)c1ccc2c3c(cc([N+](=O)[O-])c2c1)N(C(=O)c1cc2cc(OCCN(C)C)ccc2[nH]1)CC3CCl (stereo not shown) (as salt: HCl) : > 350 °C

// recorded melting point for CN(C)CCOc1ccc2[nH]c(C(=O)N3CC(CCl)c4c3cc(N)c3cc(S(C)(=O)=O)ccc43)cc2c1 (stereo not shown) : 280 to 285 °C
